# TARGET_UNDER_TEST: ALK5 (Homo sapiens)
# Sequence (P36897 34-503): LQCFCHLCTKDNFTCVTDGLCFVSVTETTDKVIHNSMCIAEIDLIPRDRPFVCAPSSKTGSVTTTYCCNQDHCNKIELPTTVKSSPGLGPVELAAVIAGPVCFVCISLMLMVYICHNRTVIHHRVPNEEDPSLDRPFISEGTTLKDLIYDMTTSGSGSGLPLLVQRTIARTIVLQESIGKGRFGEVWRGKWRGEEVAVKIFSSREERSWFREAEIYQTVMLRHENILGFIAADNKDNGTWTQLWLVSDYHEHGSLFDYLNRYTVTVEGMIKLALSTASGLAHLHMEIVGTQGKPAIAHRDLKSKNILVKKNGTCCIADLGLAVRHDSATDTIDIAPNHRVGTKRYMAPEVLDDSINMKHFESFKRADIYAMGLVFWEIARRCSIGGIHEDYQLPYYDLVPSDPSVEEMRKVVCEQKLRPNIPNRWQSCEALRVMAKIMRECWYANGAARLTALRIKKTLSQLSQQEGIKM
# TEST_NAME: ALK5 inhibition (IC50)
# Format: biochemical
VALUE_TYPE: IC50 (nM)
Numbers only here, please. The scale is nM.

>>> df
                                chem_smiles    target_under_test  value_type   val
0  Nc1nccc(-c2c(-c3ccc(F)cc3)ncn2C2CCCCC2)n1  ALK5 (Homo sapiens)        IC50  1160

Need IC50 of "Nc1ncnc2c1c(COc1cccc(Cl)c1)nn2C1CCOCC1" , thanks. 4130
